Reference for the values: ChEMBL document CHEMBL4673207

STUDY_TARGET: Histone deacetylase 5 (Homo sapiens, UniProt Q9UQL6)
Sequence (Q9UQL6 whole entry): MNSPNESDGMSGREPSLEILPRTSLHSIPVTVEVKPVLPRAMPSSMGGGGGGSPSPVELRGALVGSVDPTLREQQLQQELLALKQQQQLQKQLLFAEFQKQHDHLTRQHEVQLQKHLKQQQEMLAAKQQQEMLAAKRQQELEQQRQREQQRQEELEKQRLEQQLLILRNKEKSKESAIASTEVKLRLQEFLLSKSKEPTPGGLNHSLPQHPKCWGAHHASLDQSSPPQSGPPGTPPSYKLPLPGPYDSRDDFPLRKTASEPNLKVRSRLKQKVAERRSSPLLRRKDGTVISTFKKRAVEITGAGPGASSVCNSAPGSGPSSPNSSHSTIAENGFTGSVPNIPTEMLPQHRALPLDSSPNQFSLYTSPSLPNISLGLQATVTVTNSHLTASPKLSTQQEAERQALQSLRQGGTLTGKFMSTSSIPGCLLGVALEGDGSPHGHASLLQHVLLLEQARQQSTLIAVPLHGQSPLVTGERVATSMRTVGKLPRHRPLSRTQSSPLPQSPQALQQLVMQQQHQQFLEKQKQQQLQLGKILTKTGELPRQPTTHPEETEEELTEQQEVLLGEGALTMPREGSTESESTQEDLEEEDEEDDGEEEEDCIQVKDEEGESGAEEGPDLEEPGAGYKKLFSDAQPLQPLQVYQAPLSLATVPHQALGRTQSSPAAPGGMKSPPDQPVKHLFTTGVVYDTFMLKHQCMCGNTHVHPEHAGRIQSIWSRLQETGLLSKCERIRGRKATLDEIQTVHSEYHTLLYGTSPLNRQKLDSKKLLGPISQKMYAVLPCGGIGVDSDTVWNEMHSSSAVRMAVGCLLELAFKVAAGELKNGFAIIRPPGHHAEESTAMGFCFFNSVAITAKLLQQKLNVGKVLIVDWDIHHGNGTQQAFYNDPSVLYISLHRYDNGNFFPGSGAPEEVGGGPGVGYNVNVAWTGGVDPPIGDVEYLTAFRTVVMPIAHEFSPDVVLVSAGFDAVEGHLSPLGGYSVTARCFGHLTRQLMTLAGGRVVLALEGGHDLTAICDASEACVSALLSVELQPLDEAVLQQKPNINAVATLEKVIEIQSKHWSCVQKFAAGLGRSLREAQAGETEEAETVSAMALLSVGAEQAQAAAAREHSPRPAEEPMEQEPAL
ASSAY_REMARKS: Inhibition of human HDAC5 using fluorogenic HDAC substrate incubated for 30 mins by fluorimetry
READOUT: pIC50
The meaning of pIC50 here: minus log10 of the concentration in molar units.

*Q* Would you please give the reported pIC50 of `O=C(NO)c1ccc(Cn2c3c(c4ccccc42)S(=O)(=O)CC3)cc1` with Histone deacetylase 5 (Homo sapiens, UniProt Q9UQL6)?
*A* 6.00

====

STUDY_TARGET: Histone deacetylase 1 (Homo sapiens)
Sequence (Q13547 whole entry, the tested form may be a part): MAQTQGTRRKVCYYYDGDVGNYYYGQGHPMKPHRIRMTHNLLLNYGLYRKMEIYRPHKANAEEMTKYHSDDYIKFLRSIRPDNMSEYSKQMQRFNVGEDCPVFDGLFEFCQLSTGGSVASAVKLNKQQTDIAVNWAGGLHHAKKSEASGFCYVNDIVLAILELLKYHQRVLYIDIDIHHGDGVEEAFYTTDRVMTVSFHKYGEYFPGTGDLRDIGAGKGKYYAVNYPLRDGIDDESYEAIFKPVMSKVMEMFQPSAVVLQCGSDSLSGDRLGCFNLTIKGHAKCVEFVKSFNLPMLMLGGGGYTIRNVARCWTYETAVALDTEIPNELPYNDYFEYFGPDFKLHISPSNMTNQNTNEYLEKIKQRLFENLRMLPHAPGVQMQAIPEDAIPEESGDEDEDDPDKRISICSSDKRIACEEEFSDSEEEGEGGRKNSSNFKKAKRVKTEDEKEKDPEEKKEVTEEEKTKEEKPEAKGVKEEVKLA
ASSAY_REMARKS: Inhibition of human HDAC1 using p53 fluorogenic peptide (379 to 382 residues) RHKKAc as substrate by fluorescence-based assay
READOUT: IC50 (µM)
Record the value in µM, omitting the unit from your answer.

*Q* Please indicate IC50 recorded for O=C(NO)c1ccc(Cn2c(=O)c(F)cn(C3CCCO3)c2=O)cc1 (stereo unspecified)
*A* 1.71

====

So I've got a bunch of compounds here, and I need their pIC50 values.
STUDY_TARGET: UniProt:Q9UBN7
ASSAY_REMARKS: Inhibition of human HDAC6 using p53 fluorogenic peptide (379 to 382 residues) RHKKAc as substrate by fluorescence-based assay
The meaning of pIC50 here: minus log10 of the concentration in molar units.

*Q* Would you please give the reported pIC50 of O=C(NO)c1ccc(Cn2c(=O)c(F)cn(C3CCCO3)c2=O)cc1 (configuration not stated) with UniProt:Q9UBN7?
*A* 7.91

*Q* Would you please give the reported pIC50 of `CN(C)c1ccc(C(=O)N(CC(=O)NC2CCCCC2)Cc2ccc(C(=O)NO)cc2)cc1` with UniProt:Q9UBN7?
*A* 8.80

====

STUDY_TARGET: Histone deacetylase 8 (Homo sapiens, UniProt Q9BY41)
Sequence (Q9BY41 whole entry): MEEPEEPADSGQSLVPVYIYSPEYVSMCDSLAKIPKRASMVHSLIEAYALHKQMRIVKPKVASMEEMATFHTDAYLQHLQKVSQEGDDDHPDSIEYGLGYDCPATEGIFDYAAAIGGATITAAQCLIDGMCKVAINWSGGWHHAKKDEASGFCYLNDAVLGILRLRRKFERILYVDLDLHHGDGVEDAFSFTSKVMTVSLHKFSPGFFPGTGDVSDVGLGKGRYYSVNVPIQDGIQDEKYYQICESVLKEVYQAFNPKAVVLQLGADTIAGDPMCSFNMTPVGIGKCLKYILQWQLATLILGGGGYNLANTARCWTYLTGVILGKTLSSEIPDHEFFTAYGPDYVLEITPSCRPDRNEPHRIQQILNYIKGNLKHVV
ASSAY_REMARKS: Inhibition of human HDAC8 using fluorogenic HDAC substrate incubated for 60 mins by fluorimetry
READOUT: pIC50
The meaning of pIC50 here: minus log10 of the concentration in molar units.

*Q* Would you please give the reported pIC50 of `O=C(NO)c1ccc(Cn2c3c(c4ccccc42)S(=O)(=O)CC3)cc1` with Histone deacetylase 8 (Homo sapiens, UniProt Q9BY41)?
*A* 6.00

====

STUDY_TARGET: Polyamine deacetylase HDAC10 (Homo sapiens, UniProt Q969S8)
Sequence (Q969S8 whole entry, the tested form may be a part): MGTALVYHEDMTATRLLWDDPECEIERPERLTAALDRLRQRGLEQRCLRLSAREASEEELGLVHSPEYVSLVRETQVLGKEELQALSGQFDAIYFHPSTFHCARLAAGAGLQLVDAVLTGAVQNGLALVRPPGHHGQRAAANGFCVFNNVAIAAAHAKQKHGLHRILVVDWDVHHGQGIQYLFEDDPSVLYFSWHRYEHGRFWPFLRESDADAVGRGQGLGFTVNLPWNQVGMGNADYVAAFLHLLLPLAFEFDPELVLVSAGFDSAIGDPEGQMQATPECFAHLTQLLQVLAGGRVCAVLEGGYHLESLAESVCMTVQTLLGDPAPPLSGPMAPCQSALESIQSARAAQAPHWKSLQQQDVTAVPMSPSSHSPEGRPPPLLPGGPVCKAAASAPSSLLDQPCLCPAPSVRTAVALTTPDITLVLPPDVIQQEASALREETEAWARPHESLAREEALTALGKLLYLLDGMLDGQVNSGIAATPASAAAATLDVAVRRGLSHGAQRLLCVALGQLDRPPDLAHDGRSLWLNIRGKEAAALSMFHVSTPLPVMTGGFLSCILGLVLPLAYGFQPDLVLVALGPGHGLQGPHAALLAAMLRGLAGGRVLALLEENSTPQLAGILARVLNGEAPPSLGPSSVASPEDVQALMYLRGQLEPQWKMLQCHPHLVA
ASSAY_REMARKS: Inhibition of N-terminal Flag tagged- human HDAC10 (2 to 631 amino acids) expressed in baculovirus infected Sf9 cells using Fluor deLys substrate by fluorescence method
READOUT: IC50 (nM)
Record the value in nM, omitting the unit from your answer.

*Q* Please indicate IC50 recorded for `CN(C)c1cccc2c(S(=O)(=O)NCCCCCC(=O)NO)cccc12`
*A* 420

====

STUDY_TARGET: Protein deacetylase HDAC6 (Homo sapiens)
Sequence (Q9UBN7 whole entry): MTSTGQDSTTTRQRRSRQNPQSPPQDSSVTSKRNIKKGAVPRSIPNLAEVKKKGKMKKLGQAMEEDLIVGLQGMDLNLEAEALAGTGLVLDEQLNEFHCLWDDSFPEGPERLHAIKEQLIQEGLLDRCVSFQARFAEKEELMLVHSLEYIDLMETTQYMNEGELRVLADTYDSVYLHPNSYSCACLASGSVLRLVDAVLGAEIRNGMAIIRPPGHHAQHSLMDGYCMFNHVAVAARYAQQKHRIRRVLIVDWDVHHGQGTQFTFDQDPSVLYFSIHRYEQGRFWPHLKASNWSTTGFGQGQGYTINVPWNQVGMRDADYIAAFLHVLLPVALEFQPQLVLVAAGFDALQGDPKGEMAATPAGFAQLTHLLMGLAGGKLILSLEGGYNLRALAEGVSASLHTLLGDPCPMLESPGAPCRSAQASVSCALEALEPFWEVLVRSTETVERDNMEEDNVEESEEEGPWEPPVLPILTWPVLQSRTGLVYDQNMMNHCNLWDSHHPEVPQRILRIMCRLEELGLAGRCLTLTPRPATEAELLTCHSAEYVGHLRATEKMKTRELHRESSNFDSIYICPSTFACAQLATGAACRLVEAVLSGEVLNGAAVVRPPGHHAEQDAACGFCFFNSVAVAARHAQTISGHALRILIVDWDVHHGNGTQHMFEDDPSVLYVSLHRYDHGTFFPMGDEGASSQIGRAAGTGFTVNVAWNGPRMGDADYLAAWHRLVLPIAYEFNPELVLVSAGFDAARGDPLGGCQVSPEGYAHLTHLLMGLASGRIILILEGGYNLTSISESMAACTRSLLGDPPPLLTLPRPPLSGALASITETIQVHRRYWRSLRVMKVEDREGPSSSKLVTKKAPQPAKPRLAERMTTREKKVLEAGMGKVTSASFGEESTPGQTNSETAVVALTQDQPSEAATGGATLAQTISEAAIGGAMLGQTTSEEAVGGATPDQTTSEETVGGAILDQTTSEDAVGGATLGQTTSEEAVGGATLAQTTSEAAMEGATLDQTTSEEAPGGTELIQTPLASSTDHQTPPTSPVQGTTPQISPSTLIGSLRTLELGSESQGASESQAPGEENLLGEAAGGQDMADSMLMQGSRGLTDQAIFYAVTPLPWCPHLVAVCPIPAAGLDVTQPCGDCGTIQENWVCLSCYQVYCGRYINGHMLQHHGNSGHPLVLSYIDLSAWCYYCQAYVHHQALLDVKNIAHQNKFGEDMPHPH
ASSAY_REMARKS: Inhibition of human HDAC6 using fluorogenic HDAC substrate incubated for 30 mins by fluorimetry
READOUT: pIC50
The meaning of pIC50 here: minus log10 of the concentration in molar units.

*Q* Please indicate pIC50 recorded for `O=C(NO)c1ccc(Cn2c3c(c4ccccc42)S(=O)(=O)CC3)cc1`
*A* 8.09
